These data points were gathered from patent US7229987B2.

Quick record: Ki, UniProt Q99705.
Sequence (Q99705 whole entry): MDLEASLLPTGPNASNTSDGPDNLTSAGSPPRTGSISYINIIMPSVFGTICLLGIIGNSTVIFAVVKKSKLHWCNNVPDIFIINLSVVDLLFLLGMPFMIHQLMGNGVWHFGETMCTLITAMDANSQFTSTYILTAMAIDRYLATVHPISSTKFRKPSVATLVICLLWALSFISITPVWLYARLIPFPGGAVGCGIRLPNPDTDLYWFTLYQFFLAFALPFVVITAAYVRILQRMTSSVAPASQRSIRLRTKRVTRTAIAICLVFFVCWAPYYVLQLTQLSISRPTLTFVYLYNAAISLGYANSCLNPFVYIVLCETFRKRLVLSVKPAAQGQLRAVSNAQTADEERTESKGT

- compound: "c1ccc(OCCSCc2nnc(-c3ccc(OCc4cccnc4)cc3)o2)cc1 [drawing 61]"
  Ki, nM: 2900
- compound: "CC(C)N(CCCOc1ccc(-c2nnc(CSCCOc3ccccc3)o2)cc1)C(C)C [drawing 60]"
  Ki, nM: 140
- compound: "c1ccc(OCCSCc2nnc(-c3ccc(OCCCN4CCCC4)cc3)o2)cc1 [drawing 51]"
  Ki, nM: 14.3
- compound: "c1ccc(OCCSCc2nnc(-c3ccc(OCCCCN4CCCCCC4)cc3)o2)cc1 [drawing 57]"
  Ki, nM: 37.9
- compound: "CN(C)CCCOc1ccc(-c2nnc(CSCCOc3ccccc3)o2)cc1 [drawing 52]"
  Ki, nM: 16
- compound: "CN(C)CCCOc1ccc(-c2nnc(CSCc3ccc4ccccc4c3)o2)cc1"
  Ki, nM: 22.4
- compound: "c1ccc(OCCSCc2nnc(-c3ccc(OCCN4CCCCC4)cc3)o2)cc1 [drawing 45]"
  Ki, nM: 9.2
- compound: "C(=C\\c1ccc(-c2nnc(CSCCOc3ccccc3)o2)cc1)/CN1CCCC1 [drawing 38]"
  Ki, nM: 1.9
- compound: "CN(C)CCOc1ccc(-c2nnc(CSCCOc3ccccc3)o2)cc1 [drawing 41]"
  Ki, nM: 5.3
